test: logP by HPLC on reversed phase columns (EEC directive 79/831 Annex V.A8); format: physicochemical; conditions: method [a]: LC-MS at pH 2.7, 0.1% formic acid in water / acetonitrile
Let's look at some compounds and their measured logP.

Enquiry: Given CCC1OC(CC)(CC)c2cccc(NC(=O)c3c(C(F)F)nn(C)c3F)c21 (stereo not drawn) , state its recorded logP.
Return: 3.65[a]

Enquiry: Find the recorded logP belonging to CCC1OCc2cccc(NC(=O)c3c(C(F)F)nn(C)c3Br)c21 (stereo not drawn) and report it.
Return: 2.96[a]

Enquiry: Look at this compound and give its reported logP. CCC1(CC)OC(C)c2c(NC(=O)c3c(C(F)F)nn(C)c3F)cccc21 (stereo not drawn)
Return: 3.27[a]

Enquiry: Fill in: logP of CC(C)C1OC(C)(C)c2cccc(NC(=O)c3c(C(F)F)nn(C)c3Cl)c21 (stereo not drawn) is ___
Return: 3.33[a]

Enquiry: What value of measured logP is listed for CCC1(CC)OC(C)c2c(NC(=O)c3cn(C)nc3C(F)F)cccc21 (stereo not drawn) ?
Return: 2.9[a]

Enquiry: Consider the compound CCC1OC(CC)(CC)c2cccc(NC(=O)c3cn(C)nc3C(F)F)c21 (stereo not drawn) and give its measured logP.
Return: 3.26[a]

Enquiry: Consider the compound `Cn1nc(C(F)F)c(C(=O)Nc2cccc3c2COC3(C)C)c1F` and give its measured logP.
Return: 2.35[a]

Enquiry: Entry CC(C)C1OC(C)(C)c2cccc(NC(=O)c3cn(C)nc3C(F)F)c21 (stereo not drawn) : reported logP = ?
Return: 2.76[a]

Enquiry: logP for CCC1OC(C)(C)c2cccc(NC(=O)c3c(C(F)F)nn(C)c3Cl)c21 (stereo not drawn) ?
Return: 2.94[a]
